biological target: p110α/p85α (Homo sapiens (Human)); assay: PI3K α inhibition assay (TLC lipid kinase or HTRF)
Sequence (P42336 whole entry): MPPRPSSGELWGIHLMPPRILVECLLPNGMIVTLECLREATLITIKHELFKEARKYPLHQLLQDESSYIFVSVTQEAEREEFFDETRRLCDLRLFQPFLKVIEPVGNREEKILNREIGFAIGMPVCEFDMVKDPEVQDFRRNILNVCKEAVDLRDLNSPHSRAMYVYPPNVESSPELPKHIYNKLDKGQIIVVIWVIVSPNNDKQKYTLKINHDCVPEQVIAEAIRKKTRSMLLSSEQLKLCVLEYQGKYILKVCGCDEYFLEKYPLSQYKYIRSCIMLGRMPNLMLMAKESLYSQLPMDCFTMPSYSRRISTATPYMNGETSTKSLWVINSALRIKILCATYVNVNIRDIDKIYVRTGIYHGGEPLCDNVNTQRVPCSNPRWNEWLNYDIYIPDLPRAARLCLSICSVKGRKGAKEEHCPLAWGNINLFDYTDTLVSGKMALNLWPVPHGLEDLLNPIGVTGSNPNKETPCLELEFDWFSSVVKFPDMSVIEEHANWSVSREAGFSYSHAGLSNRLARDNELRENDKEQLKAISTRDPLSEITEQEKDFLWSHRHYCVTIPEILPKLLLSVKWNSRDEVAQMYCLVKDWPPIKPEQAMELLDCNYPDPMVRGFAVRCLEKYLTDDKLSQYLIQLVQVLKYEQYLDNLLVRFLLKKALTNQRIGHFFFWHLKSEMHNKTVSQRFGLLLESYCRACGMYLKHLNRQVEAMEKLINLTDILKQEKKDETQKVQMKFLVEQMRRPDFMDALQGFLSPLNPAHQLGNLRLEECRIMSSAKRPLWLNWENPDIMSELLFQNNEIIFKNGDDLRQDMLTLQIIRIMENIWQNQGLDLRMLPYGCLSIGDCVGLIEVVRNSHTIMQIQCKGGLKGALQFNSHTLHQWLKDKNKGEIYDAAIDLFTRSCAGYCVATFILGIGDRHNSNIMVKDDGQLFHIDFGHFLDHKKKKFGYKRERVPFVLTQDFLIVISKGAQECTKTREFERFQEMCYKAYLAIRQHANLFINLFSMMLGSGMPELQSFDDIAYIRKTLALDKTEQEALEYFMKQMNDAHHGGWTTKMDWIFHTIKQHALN
Sequence (P27986 whole entry partner): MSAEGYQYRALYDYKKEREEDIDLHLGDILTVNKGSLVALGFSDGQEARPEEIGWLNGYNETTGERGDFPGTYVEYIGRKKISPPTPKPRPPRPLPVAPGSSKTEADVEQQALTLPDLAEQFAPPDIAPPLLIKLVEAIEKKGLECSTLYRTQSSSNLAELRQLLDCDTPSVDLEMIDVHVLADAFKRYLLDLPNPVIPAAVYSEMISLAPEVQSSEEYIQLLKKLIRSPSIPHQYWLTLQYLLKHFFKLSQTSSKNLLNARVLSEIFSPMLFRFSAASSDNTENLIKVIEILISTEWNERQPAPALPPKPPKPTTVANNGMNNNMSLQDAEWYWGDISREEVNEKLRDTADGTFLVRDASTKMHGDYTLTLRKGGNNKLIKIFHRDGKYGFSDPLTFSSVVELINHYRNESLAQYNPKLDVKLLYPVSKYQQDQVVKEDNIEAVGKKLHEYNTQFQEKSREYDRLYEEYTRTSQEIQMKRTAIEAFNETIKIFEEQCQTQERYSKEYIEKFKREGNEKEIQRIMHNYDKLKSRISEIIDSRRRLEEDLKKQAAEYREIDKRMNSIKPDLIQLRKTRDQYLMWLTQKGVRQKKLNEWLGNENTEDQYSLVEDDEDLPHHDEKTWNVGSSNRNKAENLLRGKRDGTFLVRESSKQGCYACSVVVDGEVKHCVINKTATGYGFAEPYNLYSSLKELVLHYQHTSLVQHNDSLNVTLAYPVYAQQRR
pIC50: −log10 of the molar value.
pIC50 overview

Solved cases (2 shown):
- record.smiles: "Nc1ncnc2c1c(-c1cc(O)cc(F)c1)nn2Cc1cc2ccccc2nc1-c1cccnc1"
  pIC50: "< 6.00"
- record.smiles: "Nc1ncc(-c2nn(Cc3cc4ccccc4nc3-c3ccccc3F)c3nccc(N)c23)cn1"
  pIC50: "< 6.00"

Next:
Assay p110α/p85α (Homo sapiens (Human)), sample CN1CCN(CCc2nc3ccccc3cc2Cn2nc(-c3cc(O)cc(F)c3)c3c(N)ncnc32)CC1 , pIC50 read: < 6.00

Hello, the source for this data is patent US9790228B2, in case you need it.
